Test system: SW 480
EXPERIMENT: Growth inhibition test (MTT) for cytotoxic properties, SW 480
ASSAY_CONTEXT: Homo sapiens, SW480, 144 h, read-out: IC50/nM SW 480
Counter-ions that a name gives are not always drawn.
Kindly supply the reported IC50 values for the records listed here.
Provide only the numeric value, understood in nM.

Data request, read-out IC50, for CC[C@@]1(OC(=O)[C@@H](CC(C)C)NC(=O)[C@H](CCCN)NC(=S)Nc2ccc(OC3O[C@@H](C)[C@@H](O)[C@@H](OC)[C@@H]3O)cc2)C(=O)OCc2c1cc1n(c2=O)Cc2cc3ccccc3nc2-1 (some centres unmarked) [Example 4, hydrochloride]
100

Data request, read-out IC50, for CC[C@@]1(OC(=O)[C@H](CC(C)C)NC(=O)[C@H](CCCNC(=N)N)NC(=S)Nc2ccc(OC3O[C@@H](C)[C@@H](O)[C@@H](OC)[C@@H]3O)cc2)C(=O)OCc2c1cc1n(c2=O)Cc2cc3ccccc3nc2-1 (some centres unmarked)
100

Data request, read-out IC50, for CC[C@@]1(OC(=O)C(CC(C)C)NC(=O)[C@H](CCCCN)NC(=S)Nc2ccc(OC3O[C@@H](C)[C@@H](O)[C@@H](OC)[C@@H]3O)cc2)C(=O)OCc2c1cc1n(c2=O)Cc2cc3ccccc3nc2-1 (some centres unmarked) [Example 1, hydrochloride]
70

Data request, read-out IC50, for CC[C@@]1(OC(=O)[C@@H](NC(=O)[C@H](CCCCN)NC(=S)Nc2ccc(OC3O[C@@H](C)[C@@H](O)[C@@H](OC)[C@@H]3O)cc2)C(C)C)C(=O)OCc2c1cc1n(c2=O)Cc2cc3ccccc3nc2-1 (some centres unmarked) [Example 8, hydrochloride]
200

Data request, read-out IC50, for CC[C@@]1(OC(=O)[C@@H](CC(C)C)NC(=O)[C@H](CCCCN)NC(=S)Nc2ccc(OC3O[C@@H](C)[C@@H](O)[C@@H](OC)[C@@H]3O)cc2)C(=O)OCc2c1cc1n(c2=O)Cc2cc3ccccc3nc2-1 (some centres unmarked) [Example 6, hydrochloride]
60

====

System: B16F10
EXPERIMENT: Growth inhibition test (MTT) for cytotoxic properties, B16F10
ASSAY_CONTEXT: Mus musculus, B16-F10, 144 h, read-out: IC50/nM B16F10
Counter-ions that a name gives are not always drawn.
READOUT_TYPE: IC50 (nM)
Provide only the numeric value, understood in nM.

Data request, read-out IC50, for CC[C@@]1(OC(=O)[C@@H](NC(=O)[C@H](CCCCN)NC(=S)Nc2ccc(OC3O[C@@H](C)[C@@H](O)[C@@H](OC)[C@@H]3O)cc2)C(C)C)C(=O)OCc2c1cc1n(c2=O)Cc2cc3ccccc3nc2-1 (stereo partly shown) [Example 8, hydrochloride]
800

Data request, read-out IC50, for CCC1(OC(=O)C(NC(=O)[C@H](Cc2c[nH]cn2)NC(=S)Nc2ccc(OC3OC(C)C(O)C(OC)C3O)cc2)C(C)C)C(=O)OCc2c1cc1n(c2=O)Cc2cc3ccccc3nc2-1.Cl (stereo partly shown) [Example 2, hydrochloride]
300

Data request, read-out IC50, for CC[C@@]1(OC(=O)[C@@H](CC(C)C)NC(=O)[C@H](CCCNC(=N)N)NC(=S)Nc2ccc(OC3O[C@@H](C)[C@@H](O)[C@@H](OC)[C@@H]3O)cc2)C(=O)OCc2c1cc1n(c2=O)Cc2cc3ccccc3nc2-1 (stereo partly shown)
200

Data request, read-out IC50, for CC[C@@]1(OC(=O)[C@@H](CC(C)C)NC(=O)[C@H](CCCCN)NC(=S)Nc2ccc(OC3O[C@@H](C)[C@@H](O)[C@@H](OC)[C@@H]3O)cc2)C(=O)OCc2c1cc1n(c2=O)Cc2cc3ccccc3nc2-1 (stereo partly shown) [Example 6, hydrochloride]
300
